System: 922993-354-T-J3-PDC complex spheroids, viability;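 note: spheroids exposed to compounds for seven days; 100% = DMSO vehicle control viability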
METHOD_DESCRIPTION: Anticancer human tumor 922993-354-T-J3-PDC patient-derived endometrial carcinoma cell line growth inhibition [GQUAD]
RUN_PARAMETERS: second compound 0.0316 µM; first compound 0.000999 µM; active compounds read low
Source text: DNA G-quadruplex Stabilizer Agents in Combinations in Complex Spheroids A high-throughput screen of multi-cell type tumor spheroids was designed to identify active combinations of DNA G-quadruplex stabilizer agents and targeted small molecules. […] Compounds. […] If the clinical Cmax for an agent had not been determined, the highest concentration tested was 10 microM. […]
PROPERTY_NAME: viability, T/C (%)
Give bare numbers, in %.

Use these answered entries as a reference point.
molecule="Cc1[nH]c2ccccc2c1CCNCc1ccc(/C=C/C(=O)NO)cc1 + Cc1[nH]c2ccc(F)cc2c1-c1nc2c3cccnc3c3ncccc3c2[nH]1" property_name="viability, T/C" measure_unit=% observed_measurement=95.9
molecule="Cn1ncnc1[C@H]1c2n[nH]c(=O)c3cc(F)cc(c23)N[C@@H]1c1ccc(F)cc1 + CN(C)c1ccc(Nc2c3ccc(NC(=O)CCN4CCCC4)cc3nc3cc(NC(=O)CCN4CCCC4)ccc23)cc1" property_name="viability, T/C" measure_unit=% observed_measurement=98.4
molecule="CC[C@@]1(O)C(=O)OCc2c1cc1n(c2=O)Cc2cc3c(CN(C)C)c(O)ccc3nc2-1 + Cc1cnc(CNC(=O)c2c(=O)c3ccc(N4CCCN(C)CC4)nc3n3c2sc2ccccc23)cn1" property_name="viability, T/C" measure_unit=% observed_measurement=94.7
molecule="Cc1[nH]c2ccccc2c1CCNCc1ccc(/C=C/C(=O)NO)cc1 + CN(C)c1ccc(Nc2c3ccc(NC(=O)CCN4CCCC4)cc3nc3cc(NC(=O)CCN4CCCC4)ccc23)cc1" property_name="viability, T/C" measure_unit=% observed_measurement=104

Consider the additional molecule presented here.
Inquiry: // returns reported viability, T/C for input CCc1c2c(nc3ccc(O)cc13)-c1cc3c(c(=O)n1C2)COC(=O)[C@]3(O)CC + Cc1cnc(CNC(=O)c2c(=O)c3ccc(N4CCCN(C)CC4)nc3n3c2sc2ccccc23)cn1
Reply text: 85.3
